FYI, the data here is from patent US5068247A.

- Test system: mouse allogenic MLR (BALB/c mouse spleen cells stimulated with C57BL/6 mouse spleen cells)
- ASSAY_SUMMARY: mouse allogenic mixed lymphocyte reaction (MLR), 3H-thymidine uptake
- Format: cell-based
- RUN_PARAMETERS: Mus musculus, Lymphocyte, 0.0001 μg/ml; Table 1A; read-out: Suppression
Entry flag: YES if inhibition at 0.0001 µg/mL reaches 9%; NO if it does not.

molecule="CCCCCCC(O)C=CCCCCC=CCC(O)C(O)C(N)(CO)C(=O)O (centres unmarked)" label_class=NO
molecule=CCCCCCCCCCCCC/C=C/C[C@@H](O)[C@H](O)[C@@](N)(CO)C(=O)O label_class=YES
molecule=CCCCCCC1(CCCCCC/C=C/C[C@@H](O)[C@H](O)[C@@](N)(CO)C(=O)O)SCCS1 label_class=NO
molecule=N[C@](CO)(C(=O)O)[C@@H](O)[C@H](O)CCO label_class=YES

* * *

- ASSAY_SUMMARY: cytotoxicity to cultured tumor cell line K562
- RUN_PARAMETERS: human, k562 cells, Suppression, 0.1 μg/ml
MEASURED_ENDPOINT: cytotoxicity at 72 h (%)

smiles=CCCCCCC(CCCCCC/C=C/C[C@@H](O)[C@H](O)[C@@](N)(CO)C(=O)O)=NO measured_endpoint="cytotoxicity at 72 h" numeric_value=0
smiles=CCCCCCCCCCCCCCCC[C@@H](O)[C@H](O)[C@@](N)(CO)C(=O)O measured_endpoint="cytotoxicity at 72 h" numeric_value=0.7
smiles=CCCCCCCCCCCCC/C=C/C[C@@H](O)[C@H](O)[C@@](N)(CO)C(=O)O measured_endpoint="cytotoxicity at 72 h" numeric_value=2.2

* * *

- ASSAY_SUMMARY: cytotoxicity to cultured tumor cell line K562
- RUN_PARAMETERS: human, k562 cells, Suppression, 10 μg/ml
MEASURED_ENDPOINT: cytotoxicity at 72 h (%)

smiles=CCCCCCC(CCCCCC/C=C/C[C@@H](O)[C@H](O)[C@@](N)(CO)C(=O)O)=NO measured_endpoint="cytotoxicity at 72 h" numeric_value=0
smiles=CCCCCCCCCCCCC/C=C/C[C@@H](O)[C@H](O)[C@@](N)(CO)C(=O)O measured_endpoint="cytotoxicity at 72 h" numeric_value=4.7
smiles=CCCCCCCCCCCCCCCC[C@@H](O)[C@H](O)[C@@](N)(CO)C(=O)O measured_endpoint="cytotoxicity at 72 h" numeric_value=4.4

* * *

A collection of molecules and their measured inhibition at 0.1 µg/mL
- Tested on: IL-2 production in PHA-stimulated mouse spleen cells
- ASSAY_SUMMARY: suppression of IL-2 production in PHA-stimulated mouse spleen cells
- Type: cell-based
- RUN_PARAMETERS: Mus musculus, 24 h; 0.1 μg/ml; read-out: Suppression
MEASURED_ENDPOINT: inhibition at 0.1 µg/mL

molecule=CCCCCCC1(CCCCCC/C=C/C[C@@H](O)[C@H](O)[C@@](N)(CO)C(=O)O)SCCS1 measured_endpoint="inhibition at 0.1 µg/mL" result=0%
molecule=N[C@](CO)(C(=O)O)[C@@H](O)[C@H](O)CCO measured_endpoint="inhibition at 0.1 µg/mL" result=29.6%
molecule="CCCCCCC(O)C=CCCCCC=CCC(O)C(O)C(N)(CO)C(=O)O (stereo not shown)" measured_endpoint="inhibition at 0.1 µg/mL" result=69.4%
molecule=CCCCCCCCCCCCC/C=C/C[C@@H](O)[C@H](O)[C@@](N)(CO)C(=O)O measured_endpoint="inhibition at 0.1 µg/mL" result=68.1%
